# Test system: MCF7 breast
# Assay remarks: NCI tumour cell line growth inhibition, 48 h
Parameter measured: TGI

Molecule | Parameter measured | Reported result
CN1CC[C@@H](c2c(O)cc(O)c3c(=O)cc(-c4ccccc4Cl)oc23)[C@@H]1CO | TGI | > 10 µM

Take each entry in turn and give its TGI.
1. O=c1ccn(CC2(CO)CC(Cc3ccccc3)C2)c(=O)[nH]1 (stereo not given)
2. CCOC(=O)c1cnc2oc3ccc(O)cc3c2c1-c1ccccc1
3. COc1cc(/C=C2/C[C@H]3[C@@H]4CC=C5C[C@@H](OC(C)=O)CC[C@]5(C)[C@H]4CC[C@]3(C)NC2=O)cc(OC)c1OC

RESULT:
["> 100 µM", "> 100 µM", "> 100 µM"]

QUERY: Item under review: CCOC(=O)c1cc2c3c(c(C(C)=O)c(O)c2[nH]1)N(CC(C)CC)CC3 (stereo not given) . Reported TGI?
RESULT: > 100 µM

* * *

# Test system: SK-MEL-2 melanoma
# Assay remarks: NCI tumour cell line growth inhibition, 48 h
Parameter measured: TGI

Compound | TGI
O=[N+]([O-])c1cccc([As]=[As]c2cccc([N+](=O)[O-])c2)c1 (stereo not given) | 0.272 µM
C[C@@H]1CC[C@H]2C(C(O)CCCCC(O)C3=C(C(F)(F)F)O[C@@H]4O[C@@]5(C)CC[C@H]6[C@H](C)CC[C@@H]3[C@@]46OO5)=C(C(F)(F)F)O[C@@H]3O[C@@]4(C)CC[C@@H]1[C@]32OO4 (stereo not given in full) | > 100 µM
COC(=O)C(CSSC[C@H](N/C(C)=C/C(C)=O)C(=O)OC)N/C(C)=C/C(C)=O (stereo not given in full) | > 100 µM
CCOC(=O)c1nc2ccc(C(F)(F)F)cc2nc1Oc1cc(OC)cc(OC)c1 | > 100 µM
O=C(/C=C/c1ccc([N+](=O)[O-])cc1)c1ccc2c3c(cccc13)CC2 | > 100 µM

Take each entry in turn and give its TGI.
1. COc1ccc(-n2c(=O)n(C)c(=O)n2-c2ccc(OC)cc2)cc1
2. CC#CC(=O)SCCNC(=O)CC
3. CCOC(=O)c1c(N2CCCC2)ncn(Cc2ccccc2)c1=S
4. Cc1cn(Cc2cnnn2CC2OC(n3cc(C)c(=O)[nH]c3=O)CC2O)c(=O)[nH]c1=O (stereo not given)
5. C=C1C(=O)OC2/C=C(/C)C(OC(C)=O)CC(O)/C(C)=C\C(OC(=O)/C(C)=C\C)C12 (stereo not given)
6. O=C(O)c1ccn(-c2cccc(-n3ccc(C(=O)O)n3)n2)n1
7. COc1cc(C(=O)NC2CCN(C)CC2)c(F)cc1Nc1ncc2c(n1)N(C1CCCC1)CC(F)(F)C(=O)N2C

RESULT:
> 100 µM
> 10 µM
> 100 µM
> 100 µM
> 100 µM
> 100 µM
3.4 µM

Take each entry in turn and give its TGI.
1. COc1ccc2c(c1)c(CC(=O)O)c(C)n2C(=O)c1ccc(Cl)cc1
2. C[CH2][Sn]([CH2]C)([O]C(=O)C(OC(C)=O)c1ccccc1)[O]C(=O)C(OC(C)=O)c1ccccc1 (stereo not given)
3. c1cn(C23C4C5C6C4C2C6C53)cn1 (stereo not given)
4. Cc1c2c(nn1C)CSCc1cc(n(C)n1)CSc1cc(c3ccccc3c1)OCCCc1c(C(=O)O)n(C)c3c-2c(Cl)ccc13
5. CN1CC[C@@H](c2c(O)cc(O)c3c(=O)cc(-c4ccccc4Cl)oc23)[C@@H]1CO
6. Nc1ncnc2c1nnn2C1CCC(CP(=O)(O)O)C1 (stereo not given)
7. COc1cc(/C=C2\Sc3scc(-c4cccc([N+](=O)[O-])c4)[n+]3C2=O)cc(OC)c1OC
8. COC1OC2COC1(OC)C1OC(C)(C)OC21 (stereo not given)

RESULT:
1. > 100 µM
2. > 100 µM
3. > 100 µM
4. 0.429 µM
5. 0.594 µM
6. > 100 µM
7. 39.8 µM
8. > 100 µM

Reference for the values: PubChem BioAssay (NCI)
